Source: patent US6670377B1

biological target: HIV-1 integrase (Human immunodeficiency virus type 1 group M subtype B, UniProt P04585); test: endonucleolytic cleavage test of HIV-1 integrase (21 bp oligonucleotide); assay type: biochemical; conditions: read-out: endonucleolytic cleavage, concentration necessary to block 50% of the activity of HIV-1 integrase
pIC50: −log10 of the molar value.
observationType: pIC50

O=C(O)c1ccc2ccc(/C=C/c3cc(O)c(O)c(O)c3)nc2c1O    6.49
